- System: P. aeruginosa MB9798 (efflux+, IMP-1 plasmid)
- Condition notes: fold difference between efflux+ (MB9798) and efflux− (MB9799) strains
This section presents compounds with their documented Efflux ratio values.

For NS(=O)(=O)c1c(S(=O)(=O)N[C@@H]2CCNC2)ccc(N2CCCN(CCO)CC2)c1-c1nnn[nH]1 the compound record lists Efflux ratio as 4.00

Record NC[C@@H](O)CNS(=O)(=O)c1ccc(N2C[C@H]3CNC[C@H]3C2)c(-c2nn[nH]n2)c1S(N)(=O)=O , field Efflux ratio: 2.00

Noted for N[C@@H]1CCN(c2ccc(S(=O)(=O)N[C@@H]3CCNC3)c(S(N)(=O)=O)c2-c2nn[nH]n2)C[C@@H]1F : its Efflux ratio reads 1.00

Recorded result, NS(=O)(=O)c1c(S(=O)(=O)N[C@@H]2CCNC2)ccc(N2CCCC(=O)C2=O)c1-c1nn[nH]n1 , Efflux ratio: 4.00

Lab note: NCC1CCN(c2ccc(S(=O)(=O)N[C@@H](CN)CO)c(S(N)(=O)=O)c2-c2nn[nH]n2)CC1 gave Efflux ratio of 2.00

Quick note, Efflux ratio for NCC(CN)NS(=O)(=O)c1ccc(N2CCC(CO)CC2)c(-c2nnn[nH]2)c1S(N)(=O)=O landed at 1.00

Record NS(=O)(=O)c1c(S(=O)(=O)C2CNC2)ccc(N2CCC(CO)CC2)c1-c1nnn[nH]1 . Reported Efflux ratio: 4.00
